system_name: calcium channel (Cavia porcellus, UniProt A0A286X7I0)
Construct: guinea-pig skeletal muscle membranes
Sequence (A0A286X7I0 1-1867): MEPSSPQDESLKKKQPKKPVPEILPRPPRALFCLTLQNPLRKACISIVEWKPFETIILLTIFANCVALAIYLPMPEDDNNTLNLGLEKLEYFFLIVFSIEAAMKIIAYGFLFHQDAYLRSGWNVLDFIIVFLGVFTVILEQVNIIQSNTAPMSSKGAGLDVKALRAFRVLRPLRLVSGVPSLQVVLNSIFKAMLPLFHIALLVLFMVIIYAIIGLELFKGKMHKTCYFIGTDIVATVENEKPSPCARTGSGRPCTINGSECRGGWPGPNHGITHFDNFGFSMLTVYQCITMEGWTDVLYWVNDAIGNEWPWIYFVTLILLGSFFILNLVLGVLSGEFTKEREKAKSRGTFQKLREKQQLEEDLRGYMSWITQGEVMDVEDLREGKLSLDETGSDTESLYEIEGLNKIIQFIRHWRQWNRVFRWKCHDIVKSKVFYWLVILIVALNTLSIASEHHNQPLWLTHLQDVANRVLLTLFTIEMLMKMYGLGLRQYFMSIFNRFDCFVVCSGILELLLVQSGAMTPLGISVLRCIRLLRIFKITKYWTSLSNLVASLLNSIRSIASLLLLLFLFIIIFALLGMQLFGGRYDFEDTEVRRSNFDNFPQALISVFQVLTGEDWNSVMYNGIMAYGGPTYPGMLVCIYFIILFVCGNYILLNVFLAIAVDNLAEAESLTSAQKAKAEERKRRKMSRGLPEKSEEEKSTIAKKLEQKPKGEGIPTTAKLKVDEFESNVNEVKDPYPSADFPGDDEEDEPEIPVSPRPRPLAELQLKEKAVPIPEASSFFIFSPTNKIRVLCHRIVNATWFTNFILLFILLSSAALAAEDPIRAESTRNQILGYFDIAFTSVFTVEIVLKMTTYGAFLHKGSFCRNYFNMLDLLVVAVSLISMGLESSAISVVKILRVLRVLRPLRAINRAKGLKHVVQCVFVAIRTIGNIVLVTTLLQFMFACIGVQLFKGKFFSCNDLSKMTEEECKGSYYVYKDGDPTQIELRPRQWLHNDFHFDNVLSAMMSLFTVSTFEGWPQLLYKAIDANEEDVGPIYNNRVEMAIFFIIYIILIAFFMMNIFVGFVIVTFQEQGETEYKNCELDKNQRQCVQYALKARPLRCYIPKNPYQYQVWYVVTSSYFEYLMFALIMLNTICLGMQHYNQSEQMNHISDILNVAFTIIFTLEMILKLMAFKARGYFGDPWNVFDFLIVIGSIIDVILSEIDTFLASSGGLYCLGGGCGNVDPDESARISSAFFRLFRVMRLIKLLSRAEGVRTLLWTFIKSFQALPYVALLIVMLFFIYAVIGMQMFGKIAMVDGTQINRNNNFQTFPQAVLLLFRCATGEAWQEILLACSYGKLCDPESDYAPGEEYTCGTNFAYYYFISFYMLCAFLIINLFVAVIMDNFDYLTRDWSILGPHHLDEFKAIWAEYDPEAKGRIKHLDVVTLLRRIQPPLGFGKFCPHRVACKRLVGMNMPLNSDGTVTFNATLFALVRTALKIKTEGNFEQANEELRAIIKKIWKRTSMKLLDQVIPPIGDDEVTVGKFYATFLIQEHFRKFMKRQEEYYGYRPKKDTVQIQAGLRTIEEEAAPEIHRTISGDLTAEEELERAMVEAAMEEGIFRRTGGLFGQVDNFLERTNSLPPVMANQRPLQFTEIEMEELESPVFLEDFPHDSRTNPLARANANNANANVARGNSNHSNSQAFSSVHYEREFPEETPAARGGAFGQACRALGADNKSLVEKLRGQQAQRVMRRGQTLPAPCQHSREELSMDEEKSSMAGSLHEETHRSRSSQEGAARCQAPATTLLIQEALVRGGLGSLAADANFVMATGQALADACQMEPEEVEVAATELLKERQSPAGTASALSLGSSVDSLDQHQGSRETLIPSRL
experimental_details: Affinity to the calcium channel: inhibition of specific (S)-3H-devapamil binding to guinea-pig skeletal muscle membranes
condition_summary: 1 nM (S)-3H-devapamil, pH 7.4, 20° C., 60 minutes, read-out: Test 3 Ki
measured_parameter: pKi
Units for pKi: none; it is -log10 of a concentration expressed in mol/L.

>>> df
                                   compound                               system_name  measured_parameter  obs_value
0  OC(COc1ccc(Cl)cc1)CN1CCN(CC(c2ccccc2)c2ccccc2)CC1 (stereo not shown) [Example 9]  calcium channel (Cavia porcellus, UniProt A0A286X7I0)                 pKi       7.52
1  OC(COc1ccc(Cl)cc1)CN1CCN(CCCC(c2ccc(F)cc2)c2ccc(F)cc2)CC1 (stereo not shown) [Example 1]  calcium channel (Cavia porcellus, UniProt A0A286X7I0)                 pKi       8.10
2  OC(COc1ccc(Cl)cc1)CN1CCN(CCC(c2ccccc2)c2ccccc2)CC1 (stereo not shown) [Example 8]  calcium channel (Cavia porcellus, UniProt A0A286X7I0)                 pKi       6.80

Then there is this compound:
Record request: pKi value, item Cc1cccc(C)c1NC(=O)CN1CCN(CCCC(c2ccc(F)cc2)c2ccc(F)cc2)CC1 [lidoflazine, reference compound]
7.70

Taken from patent US5342839A.
